Exercise: for every item that follows, state its recorded relative viability.
- Test system: COR-L23
- protocol: relative viability (nuclei count vs DMSO), 5 days (fraction); higher = more cells survive
- measurementConditions: first compound 0.1265 µM
Give bare numbers.

Examples from the recorded data:
molecule: COc1cc(N2CCC(C(N)=O)CC2)ccc1Nc1nc(N)c(Cl)c(Nc2ccccc2S(=O)(=O)C(C)C)n1 [HG-5-88-01] + CS(=O)(=O)CCNCc1ccc(-c2ccc3ncnc(Nc4ccc(OCc5cccc(F)c5)c(Cl)c4)c3c2)o1 [Lapatinib] (partner 2 µM)
subjectOfTest: COR-L23
relative viability: 1.07
--
molecule: C[C@@H]1CN(CC(=O)Nc2ccc3c(c2)Cc2cccc(-c4cc(=O)cc(N5CCOCC5)o4)c2S3)C[C@H](C)O1 + Cc1nc(NC(=O)N2CCC[C@H]2C(N)=O)sc1-c1ccnc(C(C)(C)C(F)(F)F)c1 [Alpelisib] (partner 2 µM)
subjectOfTest: COR-L23
relative viability: 0.802

Can you give me relative viability for all of these, one by one?
1. C[C@@H]1CN(CC(=O)Nc2ccc3c(c2)Cc2cccc(-c4cc(=O)cc(N5CCOCC5)o4)c2S3)C[C@H](C)O1 + Nc1nc2[nH]cc(CCc3ccc(C(=O)N[C@@H](CCC(=O)O)C(=O)O)cc3)c2c(=O)[nH]1 [Pemetrexed] (partner 0.2 µM)
2. COc1cc(N2CCC(C(N)=O)CC2)ccc1Nc1nc(N)c(Cl)c(Nc2ccccc2S(=O)(=O)C(C)C)n1 [HG-5-88-01] + Nc1ncn([C@H]2C[C@H](O)[C@@H](CO)O2)c(=O)n1 [Decitabine] (partner 2 µM)

**A:**
1. 0.204
2. 0.531
